System: SR leukemia
Assay: NCI-60 one-dose screen, 48 h
Settings: 10 µM unless noted
Compounds without any hit were thinned out: in the full panel of roughly 83,000, 20% have a hit. Calls of active or inactive are those of the source. Rule for the calls: active = growth percent below 10; inactive = the rest.
Give one outcome, nothing more. List: active, inactive

How did this test come out for CCOC(=O)C(=CNc1cnc(Nc2ccc(N3CCOCC3)cc2)nc1Oc1ccc(OC)cc1)C(=O)OCC ? inactive

====

Test system: OVCAR-3 ovarian
Assay: NCI-60 one-dose screen, 48 h
Conditions: 10 µM unless noted
Experimental: Growth inhibition of the OVCAR-3 human tumor cell line is measured as a screen for anti-cancer activity. Cells are grown in 96 well plates and exposed to the test compound for 48 hours. Compounds are tested at a single concentration, which is 10^-5 M for most compounds. The reported endpoint is percent growth (GI% or GIPRCNT), where numbers from 0 - 100% represent growth inhibition, and numbers from -100% - 0 represent cell death. For example, a value of 40 represents 60% growth inhibition. […]
The panel holds about 83,000 compounds, 20% with a hit somewhere; the sample as a whole holds those more often. The source made the active and inactive calls. How the source made its calls: active means growth percent below 10; inactive means the rest.
Answer with one of the outcomes given here: Y for active, N for inactive

Study these solved cases before continuing.
{"COMPOUND": "Cc1ccc(C(=O)Nc2cccc(C#Cc3cccc4[nH]nc(N)c34)c2)cc1C(F)(F)F", "EXPERIMENTAL_TARGET": "OVCAR-3 ovarian", "QUALITATIVE_LABEL": "N"}
{"COMPOUND": "Cc1ccc(-c2nc(SCc3nc4cc(Cl)c(Cl)cc4[nH]3)[nH]c(=O)c2C#N)cc1", "EXPERIMENTAL_TARGET": "OVCAR-3 ovarian", "QUALITATIVE_LABEL": "N"}
{"COMPOUND": "COc1cccc(Nc2ncnc3cc(NC(=O)CCl)ccc23)c1", "EXPERIMENTAL_TARGET": "OVCAR-3 ovarian", "QUALITATIVE_LABEL": "Y"}
{"COMPOUND": "C=C(C)[C@@H]1CC[C@]2(C(N)=O)CC[C@]3(C)[C@H](CC[C@@H]4[C@@]5(C)CC[C@H](OCCC#N)C(C)(C)[C@@H]5CC[C@]43C)[C@@H]12", "EXPERIMENTAL_TARGET": "OVCAR-3 ovarian", "QUALITATIVE_LABEL": "N"}
{"COMPOUND": "O=C(CCl)NNc1nccc(Nc2ccc(S(=O)(=O)Nc3ccncc3)cc2)n1", "EXPERIMENTAL_TARGET": "OVCAR-3 ovarian", "QUALITATIVE_LABEL": "N"}

Dear colleague, could you share the recorded outcome for CCN1CCN(CCNc2nccc(-c3c(-c4ccc(F)c(OC)c4)nc4sccn34)n2)S1(=O)=O when you have a moment? N

What classification did Nc1[nH]c(=S)nc2oc(-c3ccccc3)c(-c3ccccc3)c12 end up with in this test? N

Hey, what did the test say about CNC(C)[C@H]1CCC2C3CC=C4C(=O)[C@@H](NC(=O)C=C(C)C)CC[C@]4(C)C3CC[C@@]21C (some centres undefined) ? Y

Just curious, what result did O=C(CCSc1nnc2n(Cc3ccccc3)c(=O)c3c4c(sc3n12)CCCC4)N1CCN(c2ccccc2)CC1 get here? N

====

Test system: CCRF-CEM leukemia
Assay: NCI-60 one-dose screen, 48 h (100 = growth as untreated, 0 = no growth, -100 = all killed)
Conditions: 10 µM unless noted
This is part of a sample that, as a whole, favours compounds with a hit. Of some 83,000 tested, about 20% had one in any assay.
# growth annotations
Only the number, expressed in %, is required.

See these solved cases before continuing.
{"COMPOUND": "CCN1CCN(CC(=O)Nc2ccc(-c3cn4c(n3)sc3cc(Oc5ccnc(C(=O)NC)c5)ccc34)cc2)CC1", "EXPERIMENTAL_TARGET": "CCRF-CEM leukemia", "growth (%)": 44.9}
{"COMPOUND": "CCNc1nc(O)c(/C=C2\\C=Nc3ncccc32)s1", "EXPERIMENTAL_TARGET": "CCRF-CEM leukemia", "growth (%)": 3.01}
{"COMPOUND": "Clc1ccccc1-c1cnn2cc(-c3ccccc3)cnc12", "EXPERIMENTAL_TARGET": "CCRF-CEM leukemia", "growth (%)": 89.2}
{"COMPOUND": "COc1cccc(C(=O)NNc2nc(Cl)nc(Cl)n2)c1", "EXPERIMENTAL_TARGET": "CCRF-CEM leukemia", "growth (%)": 101}
{"COMPOUND": "O=S(=O)(NCCNc1nccc(-c2c(-c3ccc(F)c(O)c3)nc3sccn23)n1)c1ccc(F)cc1", "EXPERIMENTAL_TARGET": "CCRF-CEM leukemia", "growth (%)": 12.7}

Value of measured growth for the entry CC1=C2[C@@H](CC1)[C@]1(C)O[C@@](c3ccccc3)(C[C@H]1OC(=O)CO)[C@H]2OC(=O)/C=C/c1ccccc1 : 77.5

// recorded growth for O=C(Nc1ccc(Cl)cc1)Oc1c(Cl)c(Cl)c(Cl)c(Cl)c1Cl : 92.1

The compound listed as CN1CCN(CCOc2ccc(-c3cnc4c(-c5cccc(F)c5F)cnn4c3)cc2)CC1 has a reported growth of -13.3

Entry O=C1/C(=C\c2ccccn2)c2ccccc2N1c1c(Cl)cccc1Cl , growth reported as 8.81

growth reported for this compound Cn1c2c(c3ccc(Cl)c(Cl)c31)C(C#N)C(C)(C)NC2=O (stereo unspecified) : 87.9

compound COc1cc2nc3sc(C(=O)Nc4ccc(C(=O)OC(C)C)cc4)c(C(=O)Nc4ccc(Cl)cc4C)n3c(=O)c2cc1OC , growth observed: 23.6

Record O=C(/C=C/c1cccc(Cl)c1Cl)Nc1ncc(Cc2ccccc2Cl)s1 , field growth: 21.5

// Nc1nc(N)c2c(n1)NC(c1ccc(Cl)cc1)C1CCc3ccccc3C1=N2 (stereo unspecified) : growth value = 51.5

# compound COc1ccc(/C=C(/c2ccccc2)[N+](=O)[O-])c(OC)c1 ; its growth = 7.93

Per the records, this compound ( COc1ccc(NC(=O)Nc2ccc(OCCCCCC(=O)NO)cc2)cc1 ) has growth equal to 85.6
